- Test system: P. falciparum (highly chloroquine-resistant strain Fcm29-Cameroon)
- experiment: Antimalarial activity test (radioactive micromethod of Desjardins, tritiated hypoxanthine incorporation)
- Format: cell-based
- experimental_setup: Plasmodium falciparum, Erythrocyte, 0.1 μM, infected human erythrocytes, 48 h
property: inhibition at 0.1 µM (%)
// return numeric value only (unit: %, not printed)

// solved cases for inhibition at 0.1 µM follow
| compound | test_system | inhibition at 0.1 µM [%] |
| --- | --- | --- |
| COc1ccc([C@H](O)CN2c3nc(N4CCOCC4)cc(=O)n3C[C@@]2(C)C(F)(F)F)c(Cl)c1 | P. falciparum (highly chloroquine-resistant strain Fcm29-Cameroon) | 22 |
| C[C@@]1(C(F)(F)F)Cn2c(nc(N3CCOCC3)cc2=O)N1CCc1ccccc1 | P. falciparum (highly chloroquine-resistant strain Fcm29-Cameroon) | 54 |
| COc1ccccc1[C@H](O)CN1c2nc(N3CCOCC3)cc(=O)n2C[C@@]1(C)C(F)(F)F | P. falciparum (highly chloroquine-resistant strain Fcm29-Cameroon) | 20 |
| COc1cc(F)c(C(O)CN2c3nc(N4CCOCC4)cc(=O)n3C[C@@]2(C)C(F)(F)F)cc1OC (stereo partly shown) | P. falciparum (highly chloroquine-resistant strain Fcm29-Cameroon) | 39 |
| C[C@@]1(C(F)(F)F)Cn2c(nc(N3CCOCC3)cc2=O)N1CCc1ccc(N2CCOCC2)cc1 | P. falciparum (highly chloroquine-resistant strain Fcm29-Cameroon) | 39 |

Would you kindly look at the next entry?
// lookup inhibition at 0.1 µM for C[C@@]1(C(F)(F)F)Cn2c(nc(N3CCOCC3)cc2=O)N1C[C@@H](O)c1ccccc1
38

Just for reference, patent US8828997B2 is where these values come from.
